Let's look at some compounds and their measured EC50.
target_under_test: GPR8 (Homo sapiens, UniProt P48146)
Construct: expressed in transfected cells; host or cells: HEK293/CRE-BLA cells (AURORA), expression vector pIRES-hygro (Clontech)
Sequence (P48146 whole entry): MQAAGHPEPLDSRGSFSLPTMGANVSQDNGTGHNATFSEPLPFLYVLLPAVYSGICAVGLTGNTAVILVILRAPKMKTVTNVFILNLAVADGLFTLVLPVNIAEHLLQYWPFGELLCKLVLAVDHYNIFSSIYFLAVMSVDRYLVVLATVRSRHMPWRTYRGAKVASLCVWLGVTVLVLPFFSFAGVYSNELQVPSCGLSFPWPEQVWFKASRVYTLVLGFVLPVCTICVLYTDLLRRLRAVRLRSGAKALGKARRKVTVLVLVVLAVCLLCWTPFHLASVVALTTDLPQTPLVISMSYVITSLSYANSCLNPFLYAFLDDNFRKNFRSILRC
experimental_protocol: Measurement of activation capacity on GPR8 (CRE-BLA beta-lactamase reporter assay)
Assay type: cell-based
condition_context: Table 1; HEK293/CRE-BLA cells expressing GPR8; forskolin 1 µM; 3 hours at 37°C; read-out: GPR8 (nM) EC 50
Protocol: A cDNA sequence coding for human GPR7 or GPR8 [see Genomics, vol. 28, p. 84 (1995)] was amplified by the PCR method, and cloned using the expression vector pIRES-hygro (Clontech). […] In accordance with the method of Zlakarmik (see Science, 1998, vol. 279, p. 84), the activity of various synthetic peptides on GPR7 or GPR8 was measured. […]
Non-standard residues stand in square brackets, D forms with d. Residues, ends and D or L forms follow the SMILES beside them. Ava = NCCCCC(=O)O
Give a bare numeral; the unit nM is implied.

compound: CC(C)C[C@H](NC(=O)CNC(=O)[C@H](CO)NC(=O)[C@H](CC(C)C)NC(=O)[C@H](CC(C)C)NC(=O)CNC(=O)[C@H](C)NC(=O)[C@H](C)NC(=O)[C@H](CCCNC(=N)N)NC(=O)CNC(=O)CCCCNC(=O)CCCCNC(=O)[C@H](CCCCN)NC(=O)[C@H](Cc1ccc(O)cc1)NC(=O)[C@@H](N)Cc1c[nH]c2ccccc12)C(N)=O [compound 6] (H-WYK[Ava][Ava]GRAAGLLSGL-NH2)
quantitative_readout: 94
//
compound: CC(C)C[C@H](NC(=O)CNC(=O)[C@H](CO)NC(=O)[C@H](CC(C)C)NC(=O)[C@H](CC(C)C)NC(=O)CNC(=O)[C@H](C)NC(=O)[C@H](C)NC(=O)[C@H](CCCNC(=N)N)NC(=O)CNC(=O)CCCCNC(=O)[C@H](CCCCN)NC(=O)[C@H](Cc1ccc(O)cc1)NC(=O)[C@@H](N)Cc1c[nH]c2ccccc12)C(N)=O [compound 5] (H-WYK[Ava]GRAAGLLSGL-NH2)
quantitative_readout: 280
//
compound: CC(C)C[C@H](NC(=O)CNC(=O)[C@H](CO)NC(=O)[C@H](CC(C)C)NC(=O)[C@H](CC(C)C)NC(=O)CNC(=O)[C@H](C)NC(=O)[C@H](C)NC(=O)[C@H](CCCNC(=N)N)NC(=O)CNC(=O)[C@@H](NC(=O)[C@H](CO)NC(=O)[C@H](Cc1ccc(O)cc1)NC(=O)[C@H](CO)NC(=O)[C@H](CO)NC(=O)[C@H](Cc1cnc[nH]1)NC(=O)CNC(=O)[C@H](C)NC(=O)[C@H](C)NC(=O)[C@@H]1CCCN1C(=O)[C@H](CCCCN)NC(=O)[C@H](Cc1ccc(O)cc1)NC(=O)[C@@H](N)Cc1c[nH]c2ccccc12)C(C)C)C(N)=O
quantitative_readout: 0.86

Please examine the following record next.
### Prompt // map CC(C)C[C@H](NC(=O)CNC(=O)[C@H](CO)NC(=O)[C@H](CC(C)C)NC(=O)[C@H](CC(C)C)NC(=O)CNC(=O)[C@H](C)NC(=O)[C@H](C)NC(=O)[C@H](CCCNC(=N)N)NC(=O)CNC(=O)CCCCNC(=O)CCCCNC(=O)CCCCNC(=O)CCCCNC(=O)[C@H](CCCCN)NC(=O)[C@H](Cc1ccc(O)cc1)NC(=O)[C@@H](N)Cc1c[nH]c2ccccc12)C(N)=O [compound 8] (H-WYK[Ava][Ava][Ava][Ava]GRAAGLLSGL-NH2) to recorded EC50 (system: GPR8 (Homo sapiens, UniProt P48146))
### Response 51
